- tested.system: HLA-A*02:03
- assay.explanation: IEDB peptide-MHC binding, cellular MHC/competitive/fluorescence; bounds were set here for any values at or beyond the usual limits of such assays
- reported.conditions: source organism: Vaccinia virus WR
measured.parameter: IC50 (µM)
Answer format: numeric, µM implied, no suffix.

TAEQLSKYV
8.9

Entry IQYRQQLELA , system HLA-A*02:03: what IC50 was measured? 8.47

Entry LVSKHWELT please 14.9

Entry ITETIPIGM please 42.8

Entry MQLKIDKLT please 60.1

Entry FANVISKIYT please 5.31

Entry PLIISTDQDT please 35.6

Entry PANINDKQIM please 43.1

* * *

- tested.system: HLA-A*02:01
- assay.explanation: IEDB peptide-MHC binding, purified MHC/competitive/radioactivity; bounds were set here for any values at or beyond the usual limits of such assays
- reported.conditions: source organism: Vaccinia virus WR
measured.parameter: pIC50
Interpret pIC50 as the negative base-10 log of the concentration measured in mol/L.

For orientation, consider the following solved cases.
RTLLGLILFV
7.70
RTNEEFDPV
6.85
SVKNLILNFL
5.66
NLFDIPLLTV
9.48
CVLPAVVYST
6.52

Recorded pIC50 for IVALTIMGV , please? 7.57

Entry SLDVINYLI please 9.26

Entry NMDWRSLTQV please 8.38

* * *

- tested.system: HLA-A*02:01
- assay.explanation: IEDB peptide-MHC binding, purified MHC/competitive/radioactivity; bounds were set here for any values at or beyond the usual limits of such assays
- reported.conditions: source organism: Vaccinia virus WR
Item-by-item account of IC50
Answer format: numeric, nM implied, no suffix.

For orientation, consider the following solved cases.
FAALGGSVNI
3730
SIDHCSSFIV
23

Entry IASSMKGENV , system HLA-A*02:01: what IC50 was measured? 727

Entry PTSETMYLTM please 529

Entry IMFKDDNII please 235

Entry NIEIMDKEQL please 4660

* * *

Item-by-item account of IC50
- tested.system: HLA-A*02:02
- assay.explanation: IEDB peptide-MHC binding, purified MHC/competitive/radioactivity; bounds were set here for any values at or beyond the usual limits of such assays
- reported.conditions: source organism: Vaccinia virus WR
Answer format: numeric, nM implied, no suffix.

Recorded IC50 for FLDWIKDIM , please? 0.78

Entry VISTIANSNI please 282

Entry QLVKDESIQL please 157

Entry VTLFIDRGSI please 3830

Entry FITVLTSVDI please 1420

Entry NASKFVYVSV please 4550

Entry GLDERFVEEL please 93

Entry IASILSLETV please 234

Entry CAVIPFDDIV please 2920

Entry RVLYDEFVT please 2170

Entry DMDFDLNIFM please 1150

* * *

Item-by-item account of IC50
- tested.system: HLA-A*02:01
- assay.explanation: IEDB peptide-MHC binding, cellular MHC/competitive/fluorescence; bounds were set here for any values at or beyond the usual limits of such assays
- reported.conditions: source organism: Vaccinia virus WR

Recorded IC50 for CTEETKRNI , please? ≥ 70 µM

Entry AAASSTHRKV please ≥ 70 µM

Entry TMKIFYKHI please ≥ 70 µM

* * *

- tested.system: HLA-A*02:03
- assay.explanation: IEDB peptide-MHC binding, cellular MHC/competitive/fluorescence; bounds were set here for any values at or beyond the usual limits of such assays
- reported.conditions: source organism: Vaccinia virus WR
measured.parameter: pIC50
Interpret pIC50 as the negative base-10 log of the concentration measured in mol/L.

DMICCDSRIV
5.22

Recorded pIC50 for DVNEEYTEAA , please? 4.54

Entry NITHTNITTL please 5.30

Entry ATQFNFNGHT please 4.94

Entry NILGGVLHT please 4.69

Entry DVEKEKFVAT please 4.26

Entry KTEHCDDFM please 4.74

* * *

- tested.system: HLA-A*02:03
- assay.explanation: IEDB peptide-MHC binding, purified MHC/competitive/radioactivity; bounds were set here for any values at or beyond the usual limits of such assays
- reported.conditions: source organism: Vaccinia virus WR
Item-by-item account of pIC50
Interpret pIC50 as the negative base-10 log of the concentration measured in mol/L.

ILDNLRCHSA
7.16
SAVFKDSFL
6.27

Recorded pIC50 for CIVQSVLRDI , please? 6.80

Entry NLTQLFKYV please 6.62

Entry TLLNETAKVI please 5.67

Entry YLLMHLVSL please 8.85

Entry VLIAGIILLI please 7.46

Entry IAIFNNRNLA please 5.83

Entry WIKNLETYT please 6.20

* * *

- tested.system: HLA-A*68:02
- assay.explanation: IEDB peptide-MHC binding, purified MHC/competitive/radioactivity; bounds were set here for any values at or beyond the usual limits of such assays
- reported.conditions: source organism: Influenza A virus
Assign labels as follows, please: MET for IC50 below 600 nM; NOT MET for IC50 equal to or exceeding 600 nM.

// known answers, use as guide
WISFAISCFL
MET
SSLENFRAYV
MET
LVASSGTLEFI
MET
SCINRCFYV
NOT MET
MQIRGFVYFV
MET

Is the reported IC50 for NLFEKFFPSS strictly below 600 nM? MET

* * *

- tested.system: HLA-A*02:02
- assay.explanation: IEDB peptide-MHC binding, cellular MHC/competitive/fluorescence; bounds were set here for any values at or beyond the usual limits of such assays
- reported.conditions: source organism: Vaccinia virus WR
pIC50: −log10 of the molar value.
Tag: 1 if measured pIC50 is not below 5, 0 if it is.

DVSVSVGTGI
0
FASADNHPKM
0

Check if pIC50 >= 5 (inclusive). Item: GIRCVSNLDI 0

Entry DAMIHKTYI please 1

Entry EIVSHLRAST please 1

Entry EVMPEKRNVV please 0

* * *

- tested.system: HLA-A*02:03
- assay.explanation: IEDB peptide-MHC binding, cellular MHC/competitive/fluorescence; bounds were set here for any values at or beyond the usual limits of such assays
- reported.conditions: source organism: Vaccinia virus WR
measured.parameter: IC50 (µM)
Answer format: numeric, µM implied, no suffix.

LTHGADPNA
10.5
VQLSNNKYVL
9.49
VAKCCSKTNT
21.7

Recorded IC50 for KAMHDKKIDI , please? 46.2

Entry RTRCKYVGCT please 12.3

Entry YVEHDPRLVA please 16.2

* * *

- tested.system: HLA-A*02:06
- assay.explanation: IEDB peptide-MHC binding, purified MHC/competitive/radioactivity; bounds were set here for any values at or beyond the usual limits of such assays
- reported.conditions: source organism: Hepacivirus hominis
measured.parameter: log10 IC50 (log10 of the value in nM)
Record value = log10 of IC50 given in nM.

LLIAITAFT
2.66
FMRDEVSFSV
1.00
LLAPITAYA
0.72
RLLDLSSWFT
1.91
ALLRMCALV
2.62

Now for another entry.
Recorded log10 IC50 for LLSVGVGIYL , please? 2.76

* * *

Item-by-item account of pIC50
- tested.system: HLA-A*68:02
- assay.explanation: IEDB peptide-MHC binding, cellular MHC/competitive/fluorescence; bounds were set here for any values at or beyond the usual limits of such assays
- reported.conditions: source organism: Vaccinia virus WR
Interpret pIC50 as the negative base-10 log of the concentration measured in mol/L.

Recorded pIC50 for SLALKNSQA , please? 4.53

Entry YLSDSDNIKI please 5.11

Entry VIPFDDIVRT please 4.37

Entry IISTDQDTM please 5.17

Entry TTELNIVDEI please 4.97

Entry FVVNGHTCM please 5.13

Entry VLQQNNSFI please 4.79

Entry ELTNKKYRCM please 4.86

Entry TIEDDKIVTM please 4.41

Entry RLYDYFTRVT please 5.13

Entry LINLVQYRIL please 4.52

Entry KLDDTGKKEL please 4.45

Entry YIWIKNLET please 4.49

* * *

- tested.system: HLA-A*02:01
- assay.explanation: IEDB peptide-MHC binding, purified MHC/competitive/radioactivity; bounds were set here for any values at or beyond the usual limits of such assays
- reported.conditions: source organism: Vaccinia virus WR
measured.parameter: pIC50
Interpret pIC50 as the negative base-10 log of the concentration measured in mol/L.

For orientation, consider the following solved cases.
FTEGKINPLL
6.79
QLFKYVPSA
8.15

Entry AMLKSKNINI , system HLA-A*02:01: what pIC50 was measured? 6.76

Entry VLPNKVRIFI please 5.88

* * *

- tested.system: HLA-A*02:01
- assay.explanation: IEDB peptide-MHC binding, purified MHC/competitive/radioactivity; bounds were set here for any values at or beyond the usual limits of such assays
- reported.conditions: source organism: Vaccinia virus WR
measured.parameter: pIC50
Interpret pIC50 as the negative base-10 log of the concentration measured in mol/L.

LLMTSLQYA
8.60
ILSPPINAPI
7.42
TINNLKMML
6.71
ETDDDGNYPL
5.66
SLVITYCLV
6.76

Recorded pIC50 for SQSERDNYI , please? 5.92

Entry WLGAAITLVV please 6.91

Entry VLITMLSIIL please 6.91

Entry RLFSYNFTT please 9.64
